Listing: OD450 nm of selected binders
- target or system: HRgpA-6H (Porphyromonas gingivalis) (UniProt P28784)
- assay protocol: ELISA, FASEBA screening, coated HRgpA-6H 0.0625 ug/ml
No unit in the answer, please; the number alone is enough.

Completed entries (count: 4):
KB001 parental mouse Fab FASEBA variant VH S65Y (Fab, V domains shown) VH: EVQLKQSGPGLVAPSQSLSITCTVSGFSLSIYSVHWVRQPPGKGLEWLGMIWGGGSSDYNSALKYRLSISKDNSKSQVFLKMNSLQTDDTAMYYCARNGNFYAMDYWGQGTSVTVSS VL: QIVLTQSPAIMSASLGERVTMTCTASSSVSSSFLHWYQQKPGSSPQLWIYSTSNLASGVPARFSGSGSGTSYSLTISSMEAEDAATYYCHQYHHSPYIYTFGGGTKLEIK | 0.724
KB001 parental mouse Fab FASEBA variant VH N100A (Fab, V domains shown) VH: EVQLKQSGPGLVAPSQSLSITCTVSGFSLSIYSVHWVRQPPGKGLEWLGMIWGGGSSDYNSALKSRLSISKDNSKSQVFLKMNSLQTDDTAMYYCARNGAFYAMDYWGQGTSVTVSS VL: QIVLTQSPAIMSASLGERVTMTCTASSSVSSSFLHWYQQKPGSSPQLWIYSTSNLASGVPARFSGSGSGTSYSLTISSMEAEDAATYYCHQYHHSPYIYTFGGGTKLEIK | 0.809
KB001 parental mouse Fab FASEBA variant VH M104L (Fab, V domains shown) VH: EVQLKQSGPGLVAPSQSLSITCTVSGFSLSIYSVHWVRQPPGKGLEWLGMIWGGGSSDYNSALKSRLSISKDNSKSQVFLKMNSLQTDDTAMYYCARNGNFYALDYWGQGTSVTVSS VL: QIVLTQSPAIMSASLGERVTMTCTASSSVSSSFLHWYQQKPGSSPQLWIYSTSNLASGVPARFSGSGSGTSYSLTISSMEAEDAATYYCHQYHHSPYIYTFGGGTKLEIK | 0.786
KB001 parental mouse Fab FASEBA variant VH G99C (Fab, V domains shown) VH: EVQLKQSGPGLVAPSQSLSITCTVSGFSLSIYSVHWVRQPPGKGLEWLGMIWGGGSSDYNSALKSRLSISKDNSKSQVFLKMNSLQTDDTAMYYCARNCNFYAMDYWGQGTSVTVSS VL: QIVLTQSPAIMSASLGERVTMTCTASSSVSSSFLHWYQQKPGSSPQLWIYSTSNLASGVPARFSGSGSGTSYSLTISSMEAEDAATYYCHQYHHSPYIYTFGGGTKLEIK | 0.776

Requested read-out: OD450 nm. Entry: KB001 parental mouse Fab FASEBA variant VH K64Q (Fab, V domains shown) VH: EVQLKQSGPGLVAPSQSLSITCTVSGFSLSIYSVHWVRQPPGKGLEWLGMIWGGGSSDYNSALQSRLSISKDNSKSQVFLKMNSLQTDDTAMYYCARNGNFYAMDYWGQGTSVTVSS VL: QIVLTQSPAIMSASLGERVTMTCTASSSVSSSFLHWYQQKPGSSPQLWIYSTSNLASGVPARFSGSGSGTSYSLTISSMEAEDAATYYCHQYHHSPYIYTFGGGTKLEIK
0.789
